Hello, the source for this data is ChEMBL document CHEMBL4732230, in case you need it.

Target: CDK7/Cyclin H/MNAT1 (Homo sapiens)
Sequence (P51946 whole entry): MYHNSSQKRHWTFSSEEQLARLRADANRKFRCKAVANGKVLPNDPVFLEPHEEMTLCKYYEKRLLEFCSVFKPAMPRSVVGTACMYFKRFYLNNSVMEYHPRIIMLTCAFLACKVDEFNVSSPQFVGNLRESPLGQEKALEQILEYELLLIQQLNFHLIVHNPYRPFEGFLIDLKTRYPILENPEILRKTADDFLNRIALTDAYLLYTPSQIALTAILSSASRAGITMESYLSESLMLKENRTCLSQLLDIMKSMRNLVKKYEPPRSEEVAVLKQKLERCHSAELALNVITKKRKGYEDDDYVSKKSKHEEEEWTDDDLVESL
Sequence (P50613 whole entry): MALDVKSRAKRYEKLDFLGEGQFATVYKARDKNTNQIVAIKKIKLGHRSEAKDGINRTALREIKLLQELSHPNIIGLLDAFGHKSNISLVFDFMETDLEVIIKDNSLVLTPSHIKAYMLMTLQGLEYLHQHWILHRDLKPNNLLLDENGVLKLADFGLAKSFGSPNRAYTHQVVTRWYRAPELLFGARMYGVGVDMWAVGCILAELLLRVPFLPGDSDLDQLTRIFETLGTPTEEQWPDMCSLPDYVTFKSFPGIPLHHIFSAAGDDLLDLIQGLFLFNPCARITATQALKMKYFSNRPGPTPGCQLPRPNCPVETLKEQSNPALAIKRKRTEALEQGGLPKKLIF
Sequence (P51948 whole entry, further chain): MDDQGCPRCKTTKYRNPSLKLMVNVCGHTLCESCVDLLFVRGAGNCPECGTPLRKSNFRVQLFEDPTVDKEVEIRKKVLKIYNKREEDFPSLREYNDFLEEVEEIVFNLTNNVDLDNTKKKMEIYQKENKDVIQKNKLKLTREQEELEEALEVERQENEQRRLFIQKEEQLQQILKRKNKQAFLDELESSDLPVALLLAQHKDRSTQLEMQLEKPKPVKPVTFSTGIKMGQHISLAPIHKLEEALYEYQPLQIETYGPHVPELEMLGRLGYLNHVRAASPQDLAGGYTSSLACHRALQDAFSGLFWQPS
Assay: Inhibition of CDK7/cyclinH/MAT1 (unknown origin) using FAM-labeled peptide and ATP as substrate preincubated for 10 mins followed by substrate addition by mobility shift assay
pIC50: −log10 of the molar value.

[
  {
    "record-smiles": "NC(=O)c1ccc(-c2ccc(F)c(C(=O)Nc3c[nH]nc3C(=O)Nc3ccc(F)cc3)c2F)cn1",
    "pIC50": "< 4.74"
  }
]

---

Biological target: Cyclin-dependent kinase 1/cyclin B1 (Homo sapiens)
Sequence (P06493 whole entry): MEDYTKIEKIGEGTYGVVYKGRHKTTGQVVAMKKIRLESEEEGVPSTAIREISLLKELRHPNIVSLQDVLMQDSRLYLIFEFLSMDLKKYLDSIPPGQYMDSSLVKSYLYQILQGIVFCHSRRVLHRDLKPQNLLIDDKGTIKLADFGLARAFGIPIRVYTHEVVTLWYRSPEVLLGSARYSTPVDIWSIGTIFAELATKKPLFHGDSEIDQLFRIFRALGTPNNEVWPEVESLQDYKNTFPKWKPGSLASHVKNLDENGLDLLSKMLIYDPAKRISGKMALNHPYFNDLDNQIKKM
Sequence (P14635 whole entry, further chain): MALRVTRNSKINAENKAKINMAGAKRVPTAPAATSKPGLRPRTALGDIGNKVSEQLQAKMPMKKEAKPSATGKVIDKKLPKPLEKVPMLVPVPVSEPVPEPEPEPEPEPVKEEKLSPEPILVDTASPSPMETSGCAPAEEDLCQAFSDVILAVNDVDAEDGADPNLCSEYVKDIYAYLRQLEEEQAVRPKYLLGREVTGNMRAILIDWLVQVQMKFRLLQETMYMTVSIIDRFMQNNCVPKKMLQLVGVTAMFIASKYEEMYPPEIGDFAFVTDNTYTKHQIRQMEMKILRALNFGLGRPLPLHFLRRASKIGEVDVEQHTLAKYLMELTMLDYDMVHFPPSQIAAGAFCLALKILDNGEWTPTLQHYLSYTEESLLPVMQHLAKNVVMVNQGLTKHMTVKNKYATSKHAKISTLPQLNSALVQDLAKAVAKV
pIC50: −log10 of the molar value.
Is pIC50 at least 6? Then Fulfilled. If not, Not fulfilled.

[
  {
    "record-smiles": "NS(=O)(=O)c1ccc(Nc2nc(-c3cccc(-c4ccccc4)c3)c3nc[nH]c3n2)cc1",
    "label-class": "Not fulfilled"
  },
  {
    "record-smiles": "CN1CCN(CCNC(=O)c2cccc(-c3ccc(F)c(C(=O)Nc4c[nH]nc4C(=O)Nc4ccc(F)cc4)c3F)c2)CC1",
    "label-class": "Fulfilled"
  },
  {
    "record-smiles": "O=C(Nc1ccc(F)cc1)c1n[nH]cc1NC(=O)c1c(F)ccc(-c2cccc(O)c2)c1F",
    "label-class": "Fulfilled"
  },
  {
    "record-smiles": "Cc1ccc(-c2ccc(F)c(C(=O)Nc3c[nH]nc3C(=O)Nc3ccc(F)cc3)c2F)cn1",
    "label-class": "Not fulfilled"
  },
  {
    "record-smiles": "COC(=O)c1cccc(-c2ccc(F)c(C(=O)Nc3c[nH]nc3C(=O)Nc3ccc(F)cc3)c2F)c1",
    "label-class": "Fulfilled"
  },
  {
    "record-smiles": "O=C(Nc1ccc(F)cc1)c1n[nH]cc1NC(=O)c1c(F)ccc(-c2cccc(CO)c2)c1F",
    "label-class": "Fulfilled"
  },
  {
    "record-smiles": "O=C(Nc1ccc(F)cc1)c1n[nH]cc1NC(=O)c1c(F)ccc(-c2cccnc2)c1F",
    "label-class": "Fulfilled"
  },
  {
    "record-smiles": "Cc1ccc(C(=O)NCCCN2CCOCC2)cc1-c1ccc(F)c(C(=O)Nc2c[nH]nc2C(=O)Nc2ccc(F)cc2)c1F",
    "label-class": "Not fulfilled"
  },
  {
    "record-smiles": "NC(=O)c1cccc(-c2ccc(F)c(C(=O)Nc3c[nH]nc3C(=O)Nc3ccc(F)cc3)c2F)c1",
    "label-class": "Fulfilled"
  },
  {
    "record-smiles": "O=C(Nc1ccc(F)cc1)c1n[nH]cc1NC(=O)c1c(F)ccc(-c2ccc(F)nc2)c1F",
    "label-class": "Fulfilled"
  },
  {
    "record-smiles": "O=C(Nc1ccc(F)cc1)c1n[nH]cc1NC(=O)c1c(F)ccc(-c2ccccc2)c1F",
    "label-class": "Fulfilled"
  },
  {
    "record-smiles": "O=C(Nc1ccc(F)cc1)c1n[nH]cc1NC(=O)c1c(F)cccc1F",
    "label-class": "Fulfilled"
  }
]

---

Target: CDK12/Cyclin K (Homo sapiens, UniProt Q9NYV4)
Sequence (O75909 whole entry): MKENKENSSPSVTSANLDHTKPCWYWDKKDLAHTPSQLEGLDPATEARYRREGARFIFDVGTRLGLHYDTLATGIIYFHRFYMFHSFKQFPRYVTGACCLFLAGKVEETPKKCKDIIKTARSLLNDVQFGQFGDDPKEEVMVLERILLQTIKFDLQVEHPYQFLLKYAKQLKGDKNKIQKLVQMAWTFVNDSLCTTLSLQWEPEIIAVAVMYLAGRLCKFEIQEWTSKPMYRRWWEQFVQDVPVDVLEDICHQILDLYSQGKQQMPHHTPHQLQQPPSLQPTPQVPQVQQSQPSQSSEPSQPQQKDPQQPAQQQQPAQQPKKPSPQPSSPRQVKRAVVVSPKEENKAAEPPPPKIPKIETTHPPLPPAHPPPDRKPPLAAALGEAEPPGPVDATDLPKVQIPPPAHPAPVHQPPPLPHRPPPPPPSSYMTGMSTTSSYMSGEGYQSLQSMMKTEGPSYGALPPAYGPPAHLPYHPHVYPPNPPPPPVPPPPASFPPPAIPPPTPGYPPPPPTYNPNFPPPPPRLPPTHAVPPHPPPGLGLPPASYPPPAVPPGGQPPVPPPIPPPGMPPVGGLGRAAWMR
Sequence (Q9NYV4 whole entry): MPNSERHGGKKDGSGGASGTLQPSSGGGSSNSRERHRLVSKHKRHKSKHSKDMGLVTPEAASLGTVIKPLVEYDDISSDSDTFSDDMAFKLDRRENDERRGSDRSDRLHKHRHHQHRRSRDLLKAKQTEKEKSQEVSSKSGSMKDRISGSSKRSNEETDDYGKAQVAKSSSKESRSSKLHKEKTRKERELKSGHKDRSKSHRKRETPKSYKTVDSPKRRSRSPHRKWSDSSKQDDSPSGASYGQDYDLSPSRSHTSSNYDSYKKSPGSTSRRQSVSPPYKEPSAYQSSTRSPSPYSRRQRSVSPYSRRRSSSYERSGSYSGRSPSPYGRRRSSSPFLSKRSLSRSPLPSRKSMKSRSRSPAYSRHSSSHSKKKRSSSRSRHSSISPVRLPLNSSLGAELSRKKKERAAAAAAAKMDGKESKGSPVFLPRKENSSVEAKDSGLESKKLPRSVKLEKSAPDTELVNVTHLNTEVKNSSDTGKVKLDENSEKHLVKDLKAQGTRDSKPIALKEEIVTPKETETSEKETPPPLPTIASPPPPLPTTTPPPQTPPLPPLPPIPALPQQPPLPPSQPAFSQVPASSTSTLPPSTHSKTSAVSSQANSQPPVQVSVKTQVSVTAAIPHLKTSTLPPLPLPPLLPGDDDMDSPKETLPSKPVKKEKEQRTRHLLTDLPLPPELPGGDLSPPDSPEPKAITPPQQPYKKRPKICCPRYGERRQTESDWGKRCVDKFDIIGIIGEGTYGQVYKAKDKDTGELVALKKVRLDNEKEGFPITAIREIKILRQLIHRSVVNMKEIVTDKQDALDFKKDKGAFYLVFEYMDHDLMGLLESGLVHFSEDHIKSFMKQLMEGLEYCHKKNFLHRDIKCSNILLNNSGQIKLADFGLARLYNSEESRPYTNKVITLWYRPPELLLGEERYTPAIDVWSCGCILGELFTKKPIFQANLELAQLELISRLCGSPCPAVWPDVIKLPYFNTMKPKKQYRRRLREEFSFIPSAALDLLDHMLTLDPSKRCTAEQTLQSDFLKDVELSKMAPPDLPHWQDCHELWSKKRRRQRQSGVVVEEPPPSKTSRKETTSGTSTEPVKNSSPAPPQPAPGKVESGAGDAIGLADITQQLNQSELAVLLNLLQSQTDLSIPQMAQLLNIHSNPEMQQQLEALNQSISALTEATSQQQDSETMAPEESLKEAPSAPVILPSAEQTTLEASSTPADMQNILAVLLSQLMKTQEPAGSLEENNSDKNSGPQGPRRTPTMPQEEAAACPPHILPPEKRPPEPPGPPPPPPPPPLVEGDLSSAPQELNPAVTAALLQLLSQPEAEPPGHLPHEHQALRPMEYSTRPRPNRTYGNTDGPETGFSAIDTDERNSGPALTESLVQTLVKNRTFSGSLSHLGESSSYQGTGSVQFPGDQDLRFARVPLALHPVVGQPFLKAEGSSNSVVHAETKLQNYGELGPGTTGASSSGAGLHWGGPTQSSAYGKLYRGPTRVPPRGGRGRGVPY
Test: Inhibition of CDK12/cyclin K (unknown origin) using FAM-labeled peptide and ATP as substrate preincubated for 10 mins followed by substrate addition by mobility shift assay
Format: protein-complex assay

[
  {
    "record-smiles": "NC(=O)c1ccc(-c2ccc(F)c(C(=O)Nc3c[nH]nc3C(=O)Nc3ccc(F)cc3)c2F)cn1",
    "study-target": "CDK12/Cyclin K (Homo sapiens, UniProt Q9NYV4)",
    "IC50": "> 18 µM"
  }
]

---

Molecular target: CDK2/Cyclin A2 (Homo sapiens)
Experiment: Inhibition of CDK2/cyclin A2 (unknown origin) using FAM-labeled peptide and ATP as substrate preincubated for 10 mins followed by substrate addition by mobility shift assay
# IC50 listing for each entry below
measured-endpoint: IC50

[
  {
    "record-smiles": "CN1CCN(CCNC(=O)c2cccc(-c3ccc(F)c(C(=O)Nc4c[nH]nc4C(=O)Nc4ccc(F)cc4)c3F)c2)CC1",
    "readout-value": "67 nM"
  },
  {
    "record-smiles": "O=C(Nc1ccc(F)cc1)c1n[nH]cc1NC(=O)c1c(F)ccc(-c2ccccc2)c1F",
    "readout-value": "86 nM"
  },
  {
    "record-smiles": "Cc1ccc(-c2ccc(F)c(C(=O)Nc3c[nH]nc3C(=O)Nc3ccc(F)cc3)c2F)cn1",
    "readout-value": "164 nM"
  },
  {
    "record-smiles": "O=C(Nc1ccc(F)cc1)c1n[nH]cc1NC(=O)c1c(F)ccc(-c2cccc(CO)c2)c1F",
    "readout-value": "76 nM"
  },
  {
    "record-smiles": "CN1CCC(CNC(=O)c2cccc(-c3ccc(F)c(C(=O)Nc4c[nH]nc4C(=O)Nc4ccc(F)cc4)c3F)c2)CC1",
    "readout-value": "82 nM"
  },
  {
    "record-smiles": "O=C(NCCCN1CCOCC1)c1cccc(-c2ccc(F)c(C(=O)Nc3c[nH]nc3C(=O)Nc3ccc(F)cc3)c2F)c1",
    "readout-value": "73 nM"
  },
  {
    "record-smiles": "COc1ccc(-c2ccc(F)c(C(=O)Nc3c[nH]nc3C(=O)Nc3ccc(F)cc3)c2F)cn1",
    "readout-value": "144 nM"
  },
  {
    "record-smiles": "Nc1ccc(-c2ccc(F)c(C(=O)Nc3c[nH]nc3C(=O)Nc3ccc(F)cc3)c2F)cn1",
    "readout-value": "120 nM"
  }
]

---

Target: Cyclin-dependent kinase 1/cyclin B1 (Homo sapiens)
Type: protein-complex assay
Description: Inhibition of CDK1/cyclin B1 (unknown origin) using FAM-labeled peptide and ATP as substrate preincubated for 10 mins followed by substrate addition by mobility shift assay
measured-endpoint: IC50 (nM)

[
  {
    "record-smiles": "O=C(NCCCN1CCOCC1)c1cccc(-c2ccc(F)c(C(=O)Nc3c[nH]nc3C(=O)Nc3ccc(F)cc3)c2F)c1",
    "measured-endpoint": "IC50",
    "readout-value": 723
  },
  {
    "record-smiles": "Nc1ccc(-c2ccc(F)c(C(=O)Nc3c[nH]nc3C(=O)Nc3ccc(F)cc3)c2F)cn1",
    "measured-endpoint": "IC50",
    "readout-value": 1260
  },
  {
    "record-smiles": "CN1CCC(CNC(=O)c2cccc(-c3ccc(F)c(C(=O)Nc4c[nH]nc4C(=O)Nc4ccc(F)cc4)c3F)c2)CC1",
    "measured-endpoint": "IC50",
    "readout-value": 743
  },
  {
    "record-smiles": "O=C(NCCCN1CCOCC1)c1ccc(F)c(-c2ccc(F)c(C(=O)Nc3c[nH]nc3C(=O)Nc3ccc(F)cc3)c2F)c1",
    "measured-endpoint": "IC50",
    "readout-value": 1300
  },
  {
    "record-smiles": "COc1ccc(-c2ccc(F)c(C(=O)Nc3c[nH]nc3C(=O)Nc3ccc(F)cc3)c2F)cn1",
    "measured-endpoint": "IC50",
    "readout-value": 712
  },
  {
    "record-smiles": "NC(=O)c1ccc(-c2ccc(F)c(C(=O)Nc3c[nH]nc3C(=O)Nc3ccc(F)cc3)c2F)cn1",
    "measured-endpoint": "IC50",
    "readout-value": 1020
  }
]
